Test: in vitro
Type: cell-based
Conditions: human
parameter: IC50 at 24 h (µM)

>>> experimental_value("O=c1[nH]cc(F)c(=O)[nH]1 [Compound 5-FU, 5-fluorouracil]")
450
